Record type: pIC50 measurement. Applies to: Histamine H1 receptor (Homo sapiens, UniProt P35367)
pIC50: −log10 of the molar value.

Ask | Dear colleague, please send me the reported pIC50 for Cc1ccccc1N1CCN(C(=O)COc2ccc3[nH]cc(CCN)c3c2)CC1 when you can.
Reply | < 5.00

Ask | Dear colleague, please send me the reported pIC50 for NCCc1c[nH]c2ccc(OCC(=O)N3CCN(c4cccc5ccccc45)CC3)cc12 when you can.
Reply | < 6.00

Numbers sourced from ChEMBL document CHEMBL1128860.
